# Target System: G-protein coupled receptor 35 (Homo sapiens)
# Sequence (Q9HC97 whole entry): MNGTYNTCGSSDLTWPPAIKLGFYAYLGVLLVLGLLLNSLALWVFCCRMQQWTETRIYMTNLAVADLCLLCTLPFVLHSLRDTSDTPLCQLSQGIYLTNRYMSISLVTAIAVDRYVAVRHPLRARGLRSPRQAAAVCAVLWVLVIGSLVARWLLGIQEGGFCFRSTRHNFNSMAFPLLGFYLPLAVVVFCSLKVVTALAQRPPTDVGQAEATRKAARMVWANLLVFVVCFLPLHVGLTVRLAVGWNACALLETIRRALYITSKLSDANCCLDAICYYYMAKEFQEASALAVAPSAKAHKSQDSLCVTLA
# Assay Protocol: Agonist activity at human GPR35b expressed in CHO cells assessed as induction of beta-arrestin recruitment after 90 mins by beta-galactosidase reporter gene assay
# Format: cell-based
Quantity Measured: EC50 (nM)

# Compound, EC50 / nM
data = [
    ("COc1ccc(C(=O)Nc2cc(F)cc3c(=O)cc(C(=O)O)oc23)cc1", 143),
    ("COc1ccc(C(=O)Nc2cc(Br)cc3c(=O)cc(C(=O)O)oc23)cc1", 22.1),
]

(I) O=C(Nc1cc(Br)cc2c(=O)cc(C(=O)O)oc12)c1ccc(Cl)c(Cl)c1
(II) O=C(Nc1cc(Br)cc2c(=O)cc(C(=O)O)oc12)c1ccc2c(c1)OCO2
(III) Cc1cccc(C(=O)Nc2cc(Br)cc3c(=O)cc(C(=O)O)oc23)c1
List the 3 entries from lowest EC50 to highest EC50 value. Provide the ranking by listing each label in its place in the requested order.
I, II, III
(I: 27.2 nM, II: 128 nM, III: 699 nM)
